# target_desc: D(2) dopamine receptor (Homo sapiens, UniProt P14416)
# Sequence (P14416 whole entry): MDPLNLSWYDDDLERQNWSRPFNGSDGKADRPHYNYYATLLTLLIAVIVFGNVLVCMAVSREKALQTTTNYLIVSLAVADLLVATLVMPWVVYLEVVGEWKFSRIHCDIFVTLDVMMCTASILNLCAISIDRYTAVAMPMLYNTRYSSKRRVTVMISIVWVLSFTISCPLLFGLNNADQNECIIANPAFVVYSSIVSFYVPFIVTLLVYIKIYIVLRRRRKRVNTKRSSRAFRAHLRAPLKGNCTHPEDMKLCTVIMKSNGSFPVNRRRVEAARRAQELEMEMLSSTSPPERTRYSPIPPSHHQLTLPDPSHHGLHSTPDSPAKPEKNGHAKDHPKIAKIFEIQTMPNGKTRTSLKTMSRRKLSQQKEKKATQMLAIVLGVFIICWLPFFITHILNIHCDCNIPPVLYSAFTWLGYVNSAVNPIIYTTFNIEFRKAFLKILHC
# method_summary: Displacement of [3H]spiperone from human cloned dopamine D2(long) receptor expressed in CHO cells
# Assay type: cell-based
measured_attribute: log10 of Ki (log10 of the value in nM)
Hello, just confirming the data are log10 of Ki with units of nM.

Worked set:
COc1ccccc1N1CCN(Cc2cnn(-c3ccccn3)c2)CC1 :: 1.60
c1ccc(N2CCN(Cc3cnn(-c4ccccc4)c3)CC2)cc1 :: 2.15
Clc1ccc(N2CCN(Cc3cnn(-c4ccccc4)c3)CC2)cc1 :: 3.46
Fc1ccc(N2CCN(Cc3cnn(-c4ccccc4)c3)CC2)cc1 :: 2.65
C1=C(c2ccccc2)CCN(Cc2cn(-c3ccccc3)nn2)C1 :: 2.34

Provide the reported log10 of Ki of each entry below, same order.
1. Cc1nn(-c2ccccc2)cc1CN1CCN(c2ccccc2)CC1
2. C1=C(c2ccccc2)CCN(Cc2cnn(-c3ccccc3)c2)C1
3. COc1ccccc1N1CCN(Cc2cnn(-c3ccccc3)c2)CC1
4. COc1ccccc1N1CCN(Cc2cn(-c3ccccc3)nn2)CC1
5. c1ccc(N2CCN(Cc3cn(-c4ccccc4)nn3)CC2)cc1
6. c1ccc(N2CCN(Cc3ccc(-n4cccn4)cc3)CC2)cc1

Reply:
1. 1.85
2. 1.58
3. 1.04
4. 2.08
5. 3.18
6. 3.48
